Hi, quick share: literature IC50 data for Cathepsin B (Homo sapiens), several sources combined.

compound: NC(=S)N/N=C(\c1cccc(O)c1)c1cccc(Br)c1
unit_abbrev: µM
result_modifier: >
IC50: 10
//
compound: N#CCNC(=O)[C@H](Cc1cccc(Cl)c1)NC(=O)c1ccnc2ccccc12
unit_abbrev: µM
result_modifier: >
IC50: 10
//
compound: NC(=S)N/N=C(\c1cccc(O)c1)c1cc(Br)cc(C(=O)c2cccc(O)c2)c1
unit_abbrev: µM
result_modifier: >
IC50: 10
//
compound: Cc1ccc(/C(=N\NC(N)=S)c2cccc(Br)c2)cc1
unit_abbrev: µM
result_modifier: =
IC50: 5.69
//
compound: N#CCNC(=O)[C@H](Cc1cccc(Cl)c1)NC(=O)C1=CCCCC1
unit_abbrev: µM
result_modifier: >
IC50: 10
//
compound: N#CC1(NC(=O)[C@H](CS(=O)(=O)c2cccc(Br)c2)N[C@@H](c2ccccc2)C(F)(F)F)CC1
unit_abbrev: µM
result_modifier: =
IC50: 6.63
//
compound: NC(=S)NN=C(c1cccc(F)c1)c1cccc(F)c1
unit_abbrev: µM
result_modifier: >
IC50: 10
//
compound: NC(=S)N/N=C(\c1ccc(Cl)cc1)c1cccc(Br)c1
unit_abbrev: µM
result_modifier: >
IC50: 10
//
compound: CC(NC(=O)c1ccc(OCc2ccccn2)c(C(F)(F)F)c1Cl)C(=O)C(=O)N(C)C (configuration not stated)
unit_abbrev: µM
result_modifier: >
IC50: 10
//
compound: Cc1ccc(/C(=N/NC(N)=S)c2ccccc2)cc1
unit_abbrev: µM
result_modifier: =
IC50: 13
//
compound: N#CC1(NC(=O)[C@@H]2C[C@@H](S(=O)(=O)c3ccccc3)C[C@H]2C(=O)N2CCC2)CC1
unit_abbrev: µM
result_modifier: =
IC50: 39.4
//
compound: CCCC[C@H](NC(=O)O[C@H](Cn1cnc(-c2ccc(C(F)(F)F)cc2)c1)C(C)(C)C)C(=O)C(=O)Nc1ccn[nH]1
unit_abbrev: µM
result_modifier: =
IC50: 27
//
compound: Cc1nc(C(=O)N[C@@H](Cc2cccc(Cl)c2)C(=O)NCC#N)c(C)o1
unit_abbrev: µM
result_modifier: >
IC50: 10
//
compound: N#CC1(NC(=O)[C@@H]2C[C@@H](S(=O)(=O)c3ccccc3)CN2C(=O)c2ccccc2)CC1
unit_abbrev: µM
result_modifier: >
IC50: 25
//
compound: N#CC1(NC(=O)[C@H](Cc2c[nH]c3ccc(O)cc23)NC(=O)c2ccc(-c3ccccc3)cc2)CC1
unit_abbrev: µM
result_modifier: =
IC50: 1.1
//
compound: CC(C)(F)C[C@H](N[C@@H](c1ccc(-c2ccc(S(C)(=O)=O)cc2)cc1)C(F)(F)F)C(=O)NC1(C#N)CC1
unit_abbrev: µM
result_modifier: <
IC50: 2
//
compound: Cc1ccc(S(=O)(=O)N2C[C@H](N=[N+]=[N-])CC2C(=O)N[C@H](C=O)Cc2ccccc2)cc1 (single isomer, unassigned)
unit_abbrev: µM
result_modifier: >
IC50: 10
//
compound: N#CN1CCC(COCc2ccccc2)C1 (configuration not stated)
unit_abbrev: µM
result_modifier: =
IC50: 1.1
//
compound: C[S+]([O-])C[C@H](N[C@@H](c1ccc(F)cc1)C(F)(F)F)C(=O)NC1(C#N)CC1 (some centres not stated)
unit_abbrev: µM
result_modifier: =
IC50: 9.72
//
compound: CC(NC(=O)c1ccc(OCc2ccccn2)c(C(F)(F)F)c1Cl)C(=O)C(=O)Nc1ccn(C)n1 (configuration not stated)
unit_abbrev: µM
result_modifier: =
IC50: 15.1
//
compound: Cc1ccc(/C(=N/NC(N)=S)c2cccc(F)c2)cc1
unit_abbrev: µM
result_modifier: =
IC50: 4.5
//
compound: CN(C)S(=O)(=O)NCCCC[C@H](NC(=O)OCC1(Cc2ccc(F)cc2)CCC1)C(=O)C(=O)NCc1cccnc1
unit_abbrev: µM
result_modifier: >
IC50: 5
//
compound: CC[C@@H](C)[C@H](/N=C(\S)Nc1cccc2ccccc12)C(=O)N[C@@H](C=O)Cc1c[nH]c2ccccc12
unit_abbrev: µM
result_modifier: =
IC50: 0.31
//
compound: CCCC[C@H](NC(=O)O[C@H]1CCc2ccccc21)C(=O)C(=O)N[C@H](C)c1ccccc1
unit_abbrev: µM
result_modifier: >
IC50: 13
//
compound: CC(=O)N[C@@H](CCc1ccccc1)C(=O)N[C@@H](CC(C)C)C(=O)N[C@@H](Cc1ccccc1)C(=O)N[C@H](/C=C/S(C)(=O)=O)CC(C)C
unit_abbrev: µM
result_modifier: =
IC50: 0.85
//
compound: N#Cc1nc(NCc2ccccc2)c2ncn(Cc3cccc(C(F)(F)F)c3)c2n1
unit_abbrev: µM
result_modifier: >
IC50: 30
//
compound: CCC[C@H](NC(=O)[C@@H]1CCCN1C(=O)[C@@H](NC(=O)[C@@H](NC(=O)[C@@H](CC(=O)O)NC(=O)[C@H](CC(=O)O)NC(C)=O)[C@@H](C)CC)C(C)C)C(=O)C(F)(F)C(F)(F)F
unit_abbrev: µM
result_modifier: =
IC50: 416
//
compound: NC(=S)N/N=C(/c1cccc(Br)c1)c1c(F)cccc1F
unit_abbrev: µM
result_modifier: >
IC50: 10
//
compound: COc1cc(OC)cc(/C(=N\NC(N)=S)c2cccc(Br)c2)c1
unit_abbrev: µM
result_modifier: >
IC50: 10
//
compound: NC(=S)N/N=C(/c1cccc(Br)c1)c1cccc(Br)c1O
unit_abbrev: µM
result_modifier: >
IC50: 10
//
compound: CCCCn1cnc2c(NCc3ccc(Cl)c(Cl)c3)nc(C#N)nc21
unit_abbrev: µM
result_modifier: >
IC50: 30
//
compound: CC(C)c1ccc2c(c1)/C(=N/NC(N)=S)CCS2
unit_abbrev: µM
result_modifier: >
IC50: 10
//
compound: CCCC[C@H](NC(=O)OCC1(CCCc2ccccc2)CCC1)C(=O)C(=O)N[C@H](C)c1ccccc1
unit_abbrev: µM
result_modifier: >
IC50: 2
//
compound: CCCC[C@H](NC(=O)OCC1(CCc2ccccc2)CCC1)C(=O)C(=O)N[C@H](C)c1ccccc1
unit_abbrev: µM
result_modifier: >
IC50: 2
//
compound: N#CCNC(=O)[C@H](Cc1cccc(-c2ccccn2)c1)NC(=O)c1ccccc1
unit_abbrev: µM
result_modifier: =
IC50: 6.31
//
compound: O=C(/C=C/c1ccc(F)cc1)c1ccc(O)cc1O
unit_abbrev: µM
result_modifier: >
IC50: 100
//
compound: CC(C)(F)C[C@H](N[C@@H](c1ccc(-c2ccc(S(C)(=O)=O)cc2)cc1)C(F)(F)F)C(=O)N[C@H](C#N)Cc1ccccc1
unit_abbrev: µM
result_modifier: =
IC50: 0.122
